Sourced from the NIST ThermoML archive (doi:10.1021/je900550v)

Property: mass density; scope: individual compounds
CONDITIONS USED: 302.9 K; 101.33 kPa; Liquid; Vibrating tube method
Numbers after ± are expanded uncertainties.

[
  {
    "COMPOUND": "CCC(=O)[O-].C[NH2+]CCO [2-hydroxy-N-methylethanaminium propionate]",
    "mass density": "1068.21 ± 2.2 kg/m3"
  },
  {
    "COMPOUND": "CCCC(=O)[O-].C[NH2+]CCO [N-methyl-2-hydroxyethylammonium butanoate]",
    "mass density": "1036.04 ± 2.2 kg/m3"
  },
  {
    "COMPOUND": "C[NH2+]CCO.O=C[O-] [2-hydroxy-N-methylethanaminium formate]",
    "mass density": "1125.59 ± 2.2 kg/m3"
  },
  {
    "COMPOUND": "CC(C)C(=O)[O-].C[NH2+]CCO [2-hydroxy-N-methylethanaminium isobutyrate]",
    "mass density": "1040.32 ± 2.2 kg/m3"
  },
  {
    "COMPOUND": "CCCCC(=O)[O-].C[NH2+]CCO [2-hydroxy-N-methylethanaminium pentanoate]",
    "mass density": "1013.03 ± 2.1 kg/m3"
  },
  {
    "COMPOUND": "CC(=O)[O-].C[NH2+]CCO [N-methyl-2-hydroxyethylammonium acetate]",
    "mass density": "1097.99 ± 2.2 kg/m3"
  }
]
